- TEST NAME: Metabolic stability in human liver microsomes assessed as half-life
- Type: ADME, Microsome

- SMILES STRING: "CCC[C@@H](CCO)Nc1nc(N)nc2cnn(Cc3ccc(CNC4CCOCC4)cc3OC)c12"
  half-life, min: 43

---

- TESTED TARGET: Voltage-gated inwardly rectifying potassium channel KCNH2 (Homo sapiens, UniProt Q12809)
- Sequence (Q12809 whole entry): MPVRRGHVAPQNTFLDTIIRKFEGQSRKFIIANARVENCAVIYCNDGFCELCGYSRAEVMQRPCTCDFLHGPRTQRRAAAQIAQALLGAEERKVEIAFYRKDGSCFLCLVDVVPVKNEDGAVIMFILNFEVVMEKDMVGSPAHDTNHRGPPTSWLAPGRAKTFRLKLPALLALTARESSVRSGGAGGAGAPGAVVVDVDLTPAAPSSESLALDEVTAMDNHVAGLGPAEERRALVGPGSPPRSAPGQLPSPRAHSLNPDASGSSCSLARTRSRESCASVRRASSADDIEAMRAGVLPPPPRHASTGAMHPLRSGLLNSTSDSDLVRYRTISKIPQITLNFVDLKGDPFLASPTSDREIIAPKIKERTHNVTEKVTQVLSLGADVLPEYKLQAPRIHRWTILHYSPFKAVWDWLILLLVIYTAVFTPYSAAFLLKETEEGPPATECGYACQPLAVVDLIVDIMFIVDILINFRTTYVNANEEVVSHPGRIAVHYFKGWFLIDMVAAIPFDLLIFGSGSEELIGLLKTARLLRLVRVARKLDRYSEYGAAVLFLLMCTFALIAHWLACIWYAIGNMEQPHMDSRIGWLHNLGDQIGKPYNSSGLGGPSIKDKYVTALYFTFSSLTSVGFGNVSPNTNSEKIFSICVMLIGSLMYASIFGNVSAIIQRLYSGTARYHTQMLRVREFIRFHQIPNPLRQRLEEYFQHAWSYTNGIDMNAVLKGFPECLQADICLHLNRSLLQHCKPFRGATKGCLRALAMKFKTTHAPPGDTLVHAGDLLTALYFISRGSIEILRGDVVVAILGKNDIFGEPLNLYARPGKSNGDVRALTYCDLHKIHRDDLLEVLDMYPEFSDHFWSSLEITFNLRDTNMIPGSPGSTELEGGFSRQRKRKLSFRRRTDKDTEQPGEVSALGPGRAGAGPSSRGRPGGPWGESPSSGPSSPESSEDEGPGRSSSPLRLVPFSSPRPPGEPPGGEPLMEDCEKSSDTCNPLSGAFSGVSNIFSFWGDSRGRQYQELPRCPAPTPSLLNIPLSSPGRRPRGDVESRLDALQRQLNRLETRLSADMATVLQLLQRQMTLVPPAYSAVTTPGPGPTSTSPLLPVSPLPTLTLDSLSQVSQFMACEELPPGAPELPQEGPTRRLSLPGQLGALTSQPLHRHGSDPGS
- TEST NAME: Inhibition of hERG by patch clamp assay
- Type: toxicity
pIC50: −log10 of the molar value.

- SMILES STRING: "CCC[C@@H](CCO)Nc1nc(N)nc2cnn(Cc3ccc(CNC4CCOCC4)cc3)c12"
  pIC50: "< 4.30"
- SMILES STRING: "CCC[C@@H](CO)Nc1nc(N)nc2cnn(Cc3ccc(CNC4CCOCC4)cc3OC)c12"
  pIC50: "< 4.30"
- SMILES STRING: "CCC[C@@H](CCO)Nc1nc(N)nc2cnn(Cc3ccc(CNC4CCOCC4)c4cccnc34)c12"
  pIC50: "< 4.30"

---

- TESTED TARGET: Voltage-gated inwardly rectifying potassium channel KCNH2 (Homo sapiens, UniProt Q12809)
- TEST NAME: Inhibition of hERG by patch clamp assay

- SMILES STRING: "CCC[C@@H](CCO)Nc1nc(N)nc2cnn(Cc3cnc(CNC4CCOCC4)cc3OC)c12"
  TESTED TARGET: "Voltage-gated inwardly rectifying potassium channel KCNH2 (Homo sapiens, UniProt Q12809)"
  IC50: "> 50 µM"
- SMILES STRING: "CCC[C@@H](CCO)Nc1nc(N)nc2cnn(Cc3ccc(CNC4CCOCC4)nc3)c12"
  TESTED TARGET: "Voltage-gated inwardly rectifying potassium channel KCNH2 (Homo sapiens, UniProt Q12809)"
  IC50: "> 50 µM"
- SMILES STRING: "CCC[C@@H](CCO)Nc1nc(N)nc2cnn(Cc3ccc(CNC4CCOCC4)cc3F)c12"
  TESTED TARGET: "Voltage-gated inwardly rectifying potassium channel KCNH2 (Homo sapiens, UniProt Q12809)"
  IC50: "> 50 µM"
- SMILES STRING: "CCC[C@@H](CCO)Nc1nc(N)nc2cnn(Cc3ncc(CNC4CCOCC4)cc3OC)c12"
  TESTED TARGET: "Voltage-gated inwardly rectifying potassium channel KCNH2 (Homo sapiens, UniProt Q12809)"
  IC50: "6 µM"
- SMILES STRING: "CCCCN(C)c1nc(N)nc2cnn(Cc3ccc(CNC4CCOCC4)cc3OC)c12"
  TESTED TARGET: "Voltage-gated inwardly rectifying potassium channel KCNH2 (Homo sapiens, UniProt Q12809)"
  IC50: "> 50 µM"
- SMILES STRING: "COc1cc(CNC2CCOCC2)ccc1Cn1ncc2nc(N)nc(N[C@@H](C)CCO)c21"
  TESTED TARGET: "Voltage-gated inwardly rectifying potassium channel KCNH2 (Homo sapiens, UniProt Q12809)"
  IC50: "> 50 µM"
